Tested on: TRPC4 beta (transient receptor potential cation channel C4), mouse
Experiment: TRPC4 cation channel opening, retest – cell-based, Fluo4 calcium, HEK293 TRPC4beta/mu-opioid, duplicates, 10 µM, confirmation (AID 2426)
Conditions: Fluo4 calcium fluorescence, at 10 µM
The source made the active and inactive calls.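 Rule for the calls: active = fluorescence ratio normalized to control raised more than 50% in primary screen plus both repeat runs; inactive = the rest.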
Bench note: report the call from yes = active, no = inactive

Sample answers from the record:
>  <compound>
COc1ccc(C(=O)CN2CCN(CCN3C(=O)c4cccc5cccc(c45)C3=O)CC2)cc1

>  <class_name>
no

$$$$
>  <compound>
CCOc1ccc2ccccc2c1/C=N/NC(=O)c1cc(C)[nH]n1

>  <class_name>
no

$$$$
>  <compound>
O=[N+]([O-])c1cc(C(F)(F)F)ccc1N1CCCNCC1

>  <class_name>
yes

$$$$
>  <compound>
COc1cccc(CN2CCNC(=O)C2CC(=O)N(C)CCc2ccccn2)c1OC (stereo unspecified)

>  <class_name>
yes

$$$$

[ask] For this compound, state the assay outcome: CCCC1=C(C(=O)OCC)C(c2cc(Cl)cc(OC)c2OCC(=O)OCC)NC(=O)N1 (stereo unspecified)
[reply] no

[ask] For this compound, state the assay outcome: "Cc1ccc(S(=O)(=O)N2CCN(c3cc4c(cc3[N+](=O)[O-])n(C)c(=O)n4C)CC2)cc1"
[reply] no

[ask] For this compound, state the assay outcome: "Oc1ccccc1Nc1nc(NCc2ccco2)c2ccccc2n1"
[reply] no

[ask] For this compound, state the assay outcome: CCN1CCCC1CNC(=O)c1cc2c(OC)cccc2[nH]1 (stereo unspecified)
[reply] yes

----------
Biological target: Short transient receptor potential channel 6 (Mus musculus) (UniProt Q61143)
Sequence (Q61143 whole entry, looked up): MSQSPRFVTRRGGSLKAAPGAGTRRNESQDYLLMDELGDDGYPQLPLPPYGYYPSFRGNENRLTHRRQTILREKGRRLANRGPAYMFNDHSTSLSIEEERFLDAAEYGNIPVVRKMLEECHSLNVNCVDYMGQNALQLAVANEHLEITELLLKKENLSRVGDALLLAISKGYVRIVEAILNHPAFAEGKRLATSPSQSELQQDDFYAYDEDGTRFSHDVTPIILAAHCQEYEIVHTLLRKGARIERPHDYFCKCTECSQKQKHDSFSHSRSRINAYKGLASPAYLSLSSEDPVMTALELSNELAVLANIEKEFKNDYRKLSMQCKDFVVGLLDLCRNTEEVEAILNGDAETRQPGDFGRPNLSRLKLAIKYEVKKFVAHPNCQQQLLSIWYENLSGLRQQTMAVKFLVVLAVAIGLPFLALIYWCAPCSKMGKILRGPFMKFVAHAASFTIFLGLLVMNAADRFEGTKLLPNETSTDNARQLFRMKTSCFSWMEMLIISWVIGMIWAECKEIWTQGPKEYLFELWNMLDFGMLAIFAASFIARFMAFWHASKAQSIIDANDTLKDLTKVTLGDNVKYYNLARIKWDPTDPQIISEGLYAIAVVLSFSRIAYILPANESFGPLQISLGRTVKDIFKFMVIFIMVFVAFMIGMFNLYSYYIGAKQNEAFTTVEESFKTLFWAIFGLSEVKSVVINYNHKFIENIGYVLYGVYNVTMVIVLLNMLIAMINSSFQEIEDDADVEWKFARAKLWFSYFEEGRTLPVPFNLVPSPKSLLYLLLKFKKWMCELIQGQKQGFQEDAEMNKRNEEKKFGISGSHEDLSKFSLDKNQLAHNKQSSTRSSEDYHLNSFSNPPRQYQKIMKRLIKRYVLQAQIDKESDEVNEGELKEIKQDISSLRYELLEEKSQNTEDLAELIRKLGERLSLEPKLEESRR
Assay: TRPC6 blockade by TRPC4 inhibitor hits – cell-based, HEK293, membrane potential dye, duplicate, selectivity assay for TRPC4 inhibitor project, confirmation (AID 434948)
Conditions: HEK293 TRPC6, membrane potential dye fluorescence, at 10 µM, stimulated with maximal-effect acetylcholine; active compounds read high
Calls of active or inactive are those of the source.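 The calls were made as follows: active = active in primary screen and both duplicates, each dropping signal beyond three positive-control SD with fluorescence still positive; inactive = the rest.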
readout_label: inhibition

>  <chemical_string>
CC(C)(C)c1ccccc1OCCCCCn1ccnc1

>  <inhibition>
inactive

$$$$
>  <chemical_string>
CC1=CC(=O)C(C(C)C)=C/C1=N/OS(=O)(=O)c1ccccc1

>  <inhibition>
inactive

$$$$
>  <chemical_string>
COC(=O)[C@@]12CCCCN1[C@H](c1ccc(-c3ccc(C(C)=O)cc3)cc1)[C@@H]1C(=O)N(C)C(=O)[C@@H]12

>  <inhibition>
inactive

$$$$
>  <chemical_string>
Cc1ccc(S(=O)(=O)Nc2ccc(N=Nc3ccc(O)cc3)cc2)cc1

>  <inhibition>
inactive

$$$$

[ask] Please tell me the measured inhibition for "CN(C(=O)COC(=O)c1sc2ccccc2c1Cl)C1CCCCC1" ; system: Short transient receptor potential channel 6 (Mus musculus) (UniProt Q61143).
[reply] inactive

----------
Target: Potassium voltage-gated channel subfamily KQT member 2 (Rattus norvegicus)
Test: W236L mutant KCNQ2 current enhancers – cell-based, rat KCNQ2 W236L, CHO, automated patch clamp, mechanism study for KCNQ2 potentiator project (AID 2558)
Conditions: at 25 µM
Some of the results follow. Active and inactive are the calls of the source.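 How the source made its calls: active means current increase at least 3 SD of the untreated controls above them in both duplicate recordings; inactive means the rest.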
Bench note: report the call from class 1 for active, class 0 for inactive

>  <molecule>
CCc1ccc(NC(=O)C(=O)NNC(=O)c2cccs2)cc1

>  <class_name>
class 0

$$$$

[ask] For this molecule, state the assay outcome: CCC1(C)Cc2c(sc3[nH]c(=S)n(Cc4ccccc4)c(=O)c23)CO1 (stereo unspecified)
[reply] class 0

[ask] For this molecule, state the assay outcome: "Fc1cc(F)c2nc(Nc3nc4c(F)cccc4s3)sc2c1"
[reply] class 0

[ask] For this molecule, state the assay outcome: "C/C(=N\NC(=O)c1ccoc1C)c1ccccc1O"
[reply] class 0

[ask] For this molecule, state the assay outcome: COc1ccc(NC(=O)/C(Cl)=C(/Cl)S(=O)Cc2ccc(C)cc2)cn1 (stereo unspecified)
[reply] class 0

[ask] For this molecule, state the assay outcome: "O=C(Nc1ccc(Oc2ccccc2)cc1)c1ccco1"
[reply] class 1

[ask] For this molecule, state the assay outcome: "O=C(NNC1=C(C(=O)C(F)(F)F)CCC1)c1ccncc1"
[reply] class 0

----------
Assay: nonspecific flux increase, KCNQ1-free cells – parental CHO cells, counter-screen for KCNQ1 potentiator project (AID 493006)
Details: parental CHO-K1 cells, FluxOR thallium flux, at 10 µM
Activity calls are given as the source filed them.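 The calls were made as follows: active = duplicate-averaged activation above buffer control mean plus 5 SD of those controls; inactive = the rest.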
Bench note: report the call from True for active, False for inactive

Sample answers from the record:
>  <compound>
O=C(O)c1ccc(Cl)cc1Nc1nc2cc(Cl)ccc2o1

>  <class_name>
False

$$$$
>  <compound>
O=C1C=CC(=O)N1CCNc1ncc(C(F)(F)F)cc1Cl

>  <class_name>
False

$$$$
>  <compound>
Cc1ccc2c(c1)C1CN(C)CCC1N2C(=S)NC(=O)c1ccc(Br)cc1 (stereo not given)

>  <class_name>
True

$$$$
>  <compound>
CCCc1nc2oc3c(NCCCN(C)C)ncnc3c2c2c1CCCC2

>  <class_name>
False

$$$$

[ask] For this compound, state the assay outcome: "Cc1ccc(OCC(=O)NNC(=S)NC(=O)c2ccc(Br)o2)c(C)c1"
[reply] True

[ask] For this compound, state the assay outcome: COc1cc(NC(=O)CSc2ncnc3sc4c(c23)CCC(C)C4)c(C(=O)O)cc1OC (stereo not given)
[reply] True

[ask] For this compound, state the assay outcome: "COc1cc(NS(=O)(=O)c2ccc3ccccc3c2)c2ncccc2c1"
[reply] False

[ask] For this compound, state the assay outcome: "Cc1nn(-c2cc(C(F)(F)F)ccc2Cl)c2nc(C(Cl)(Cl)Cl)[nH]c(=O)c12"
[reply] True

[ask] For this compound, state the assay outcome: "COc1ccc(NS(=O)(=O)c2ccc3ccccc3c2)c2ncccc12"
[reply] False

[ask] For this compound, state the assay outcome: "CCn1cc(CN2CCC(C(=O)Nc3cccc(-c4cccc(Cl)c4)c3)CC2)cn1"
[reply] False

----------
Target: Short transient receptor potential channel 4 (Mus musculus)
Assay: blockers of DAMGO-evoked TRPC4 calcium flux – cell-based, Fluo4, HEK293 TRPC4beta/mu-opioid, confirmation (AID 2636)
Conditions: at 10 µM
The source made the active and inactive calls.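 Rule for the calls: active = calcium signal cut by more than 3 SD below the full-agonist control yet still positive, in both repeats and the earlier primary screen; inactive = the rest.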
Bench note: report the call from T (active), F (inactive)

>  <molecule>
O=C(c1cccc([N+](=O)[O-])c1)N1CCCC(C(=O)N2CCCCCC2)C1 (stereo not given)

>  <class_name>
F

$$$$
>  <molecule>
CN(C)CCCNc1ncnc2c1cnn2-c1ccccc1

>  <class_name>
F

$$$$

[ask] For this molecule, state the assay outcome: "CN1CCC(=O)N([C@H](CSc2ccc(Br)cc2)Cc2ccccc2)CC1"
[reply] F

[ask] For this molecule, state the assay outcome: "Cn1c(=O)c2c(nc(CN3CCc4ccccc4C3)n2Cc2ccccc2F)n(C)c1=O"
[reply] F

----------
Biological target: Short transient receptor potential channel 4 (Mus musculus) (UniProt Q9QUQ5)
Sequence (Q9QUQ5 whole entry, looked up): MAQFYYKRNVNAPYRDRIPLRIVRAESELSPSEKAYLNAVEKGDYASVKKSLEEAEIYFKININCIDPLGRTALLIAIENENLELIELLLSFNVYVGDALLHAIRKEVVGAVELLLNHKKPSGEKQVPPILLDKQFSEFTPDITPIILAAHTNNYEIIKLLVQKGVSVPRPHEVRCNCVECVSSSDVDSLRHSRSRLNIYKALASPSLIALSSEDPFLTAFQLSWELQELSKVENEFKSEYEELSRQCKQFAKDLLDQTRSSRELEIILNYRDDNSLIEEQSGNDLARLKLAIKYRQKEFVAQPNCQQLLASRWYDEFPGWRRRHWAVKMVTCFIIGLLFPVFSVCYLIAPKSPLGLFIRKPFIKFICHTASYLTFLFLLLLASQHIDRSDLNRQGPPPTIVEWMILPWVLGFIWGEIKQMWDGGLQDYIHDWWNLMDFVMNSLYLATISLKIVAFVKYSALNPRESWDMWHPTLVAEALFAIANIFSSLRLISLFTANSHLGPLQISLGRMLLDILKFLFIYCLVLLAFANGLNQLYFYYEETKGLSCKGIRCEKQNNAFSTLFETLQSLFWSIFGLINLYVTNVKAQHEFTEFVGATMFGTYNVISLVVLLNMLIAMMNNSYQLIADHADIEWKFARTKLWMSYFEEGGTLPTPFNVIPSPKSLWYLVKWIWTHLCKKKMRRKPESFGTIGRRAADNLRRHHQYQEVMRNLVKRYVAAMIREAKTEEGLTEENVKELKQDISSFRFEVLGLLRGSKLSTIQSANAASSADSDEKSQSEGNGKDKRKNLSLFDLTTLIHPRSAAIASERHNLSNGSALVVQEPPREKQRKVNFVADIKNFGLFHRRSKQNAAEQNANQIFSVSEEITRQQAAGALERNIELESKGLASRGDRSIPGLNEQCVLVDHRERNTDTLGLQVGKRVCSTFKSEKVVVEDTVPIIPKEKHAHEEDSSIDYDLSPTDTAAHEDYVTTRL
Assay: blockers of DAMGO-evoked TRPC4 calcium flux – cell-based, second round, Fluo4, HEK293 TRPC4beta/mu-opioid, 1 µM, confirmation (AID 2637)
Details: at 1 µM; active compounds read high
The source made the active and inactive calls.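 How the source made its calls: active means calcium signal ratio cut to more than 3 SD under the fully stimulated control mean yet still positive, in both repeats and the primary screen; inactive means the rest.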
readout_label: inhibition

# count of solved cases: 6
>  <compound>
N=c1c(C(=O)NCc2ccc(F)cc2)cc2c(=O)n3ccccc3nc2n1Cc1ccco1

>  <result>
inactive

$$$$
>  <compound>
CN1CCN(CC#CCn2c3ccccc3c3ccccc32)CC1

>  <result>
inactive

$$$$
>  <compound>
COc1ccc(C(CNC(=O)c2cccc(Br)c2)N2CCCC2)cc1 (stereo unspecified)

>  <result>
inactive

$$$$
>  <compound>
CC(C)Cc1ccc(CN2CCCC(NC(=O)CCn3cnnn3)C2)cc1 (stereo unspecified)

>  <result>
inactive

$$$$
>  <compound>
COc1cc(/C=C2\C(=N)N3N=C(S(C)(=O)=O)SC3=NC2=O)ccc1OC(=O)c1cccs1

>  <result>
inactive

$$$$
>  <compound>
Clc1ccc(Cl)c(OCCCCN2CCNCC2)c1

>  <result>
inactive

$$$$

[ask] Fill in inhibition for record CC1CCCCC1NS(=O)(=O)c1ccc(S(=O)(=O)N2CCCC2)cc1 (stereo unspecified)
[reply] inactive

[ask] Fill in inhibition for record CCOc1cccc(CN2CCCC(C(=O)c3cccc(C(F)(F)F)c3)C2)c1O (stereo unspecified)
[reply] inactive

----------
Molecular target: Short transient receptor potential channel 4 (Mus musculus)
Assay: calcium flux activators in TRPC4/5HT1a cells, counter-screen for TRPC4 activator project, cell-based, second counter screen, HEK293 TRPC4/5HT1a, Fluo-4 (AID 434977)
Conditions: Fluo-4 calcium flux, at 10 µM
Active and inactive are the calls of the source.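 Rule for the calls: active = calcium signal rise above buffer-control mean plus 5 SD in both duplicates, and also a hit in the primary screen; inactive = the rest.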
Bench note: report the call from 1.0 (active), 0.0 (inactive)

Sample answers from the record:
>  <compound>
COc1ccc(C(c2nnnn2C2CCCC2)N2CCN(c3ccccc3)CC2)cc1 (stereo unspecified)

>  <class_name>
0.0

$$$$
>  <compound>
CCCN1CCN(C(=O)Cn2c(=O)oc3cc(S(=O)(=O)NCc4ccccc4)ccc32)CC1

>  <class_name>
1.0

$$$$
>  <compound>
COc1cccc(/C=C2\SC(=S)N(NS(=O)(=O)c3ccc(C)cc3)C2=O)c1OC

>  <class_name>
0.0

$$$$

// next entry
[ask] For this compound, state the assay outcome: "Cc1nc2c3cc(Cl)ccc3n(CCN3CCCCC3)c2s1"
[reply] 0.0
